Can you tell me Lipase (RFU) for the items I'm about to list?
system: lipase; assay: Lipase/lipolysis assay (EnzChek Lipase Substrate, quenched BODIPY-fatty acid conjugate) on stored human milk; further: test concentration or dose not given here
Answers are plain numbers, in RFU.

Some solved entries appear below for comparison.
{"Molecule": "CC(=O)NCCCCNCCCN.Cl.Cl [N8-Acetylspermidine dihydrochloride]", "Measured Endpoint": "Lipase (RFU)", "Units Of Measure": "RFU", "Readout Number": 781.9265}
{"Molecule": "C1CSCSC1", "Measured Endpoint": "Lipase (RFU)", "Units Of Measure": "RFU", "Readout Number": 1179.502}
{"Molecule": "CCCCC[C@H](O)/C=C/[C@H]1[C@H](O)CC(=O)[C@@H]1CCCCCCC(=O)O [Prostaglandin E1]", "Measured Endpoint": "Lipase (RFU)", "Units Of Measure": "RFU", "Readout Number": 787.5664}
{"Molecule": "C/C1=C2/[N-][C@H]([C@H](CC(N)=O)[C@@]2(C)CCC(=O)NC[C@@H](C)OP(=O)([O-])O[C@H]2[C@@H](O)[C@@H](n3cnc4cc(C)c(C)cc43)O[C@@H]2CO)[C@]2(C)N=C(/C(C)=C3N=C(/C=C4N=C1[C@@H](CCC(N)=O)C\\4(C)C)[C@@H](CCC(N)=O)[C@]\\3(C)CC(N)=O)[C@@H](CCC(N)=O)[C@]2(C)CC(N)=O.[CH2-][C@H]1O[C@@H](n2cnc3c(N)ncnc32)[C@H](O)[C@@H]1O.[Co]", "Measured Endpoint": "Lipase (RFU)", "Units Of Measure": "RFU", "Readout Number": 817.3471}

Dear colleague, could you please provide Lipase (RFU) for the molecules listed below?
1. CC(C)CCC[C@@H](C)[C@H]1CC[C@H]2C3=CC=C4C[C@@H](O)CC[C@]4(C)[C@H]3CC[C@]12C [Compound 7-Dehydrocholesterol]
2. O=C(O)[C@H](O)[C@@H](O)[C@H](O)[C@H](O)CO

RESULT:
[820.8412, 876.4287]

====

test system: lipase; experiment: Lipase/lipolysis assay (EnzChek Lipase Substrate, quenched BODIPY-fatty acid conjugate) on stored human milk; further: test concentration or dose not given here
Label met when Lipase (RFU) < 900 RFU; otherwise not met.

QUERY: Please indicate whether the reported Lipase (RFU) of COc1cc(OC)c(OC)cc1C=O is strictly below 900 RFU.
RESULT: not met

QUERY: Please indicate whether the reported Lipase (RFU) of CC(=O)O is strictly below 900 RFU.
RESULT: not met

====

system: lipase; test: Lipase/lipolysis assay (EnzChek Lipase Substrate, quenched BODIPY-fatty acid conjugate) on stored human milk; further: test concentration or dose not given here
Measured Endpoint: Lipase (RFU)
Give bare numbers, in RFU.

Some solved entries appear below for comparison.
{"Compound": "CC(=O)O[C@@H]1CC[C@@]2(C)[C@@H](CC[C@]3(C)[C@@H]2CC=C2[C@@H]4[C@@H](C)[C@H](C)CC[C@]4(C)CC[C@]23C)[C@@]1(C)C(=O)O", "Assayed Target": "lipase", "Readout Number": 752.9436}
{"Compound": "C[C@H](CCC(=O)NCCS(=O)(=O)[O-])[C@H]1CC[C@H]2[C@@H]3[C@H](O)C[C@@H]4C[C@H](O)CC[C@]4(C)[C@H]3CC[C@]12C.[Na+] [Taurochenodeoxycholic acid (sodium)]", "Assayed Target": "lipase", "Readout Number": 1047.423}
{"Compound": "O=C(O)/C=C/c1c[nH]cn1", "Assayed Target": "lipase", "Readout Number": 1101.226}

Dear colleague, could you please provide Lipase (RFU) for the compounds listed below?
1. CC(C)=CCC[C@H](C)[C@@H]1CC[C@]2(C)C3=C(CC[C@@]12C)[C@@]1(C)CC[C@H](O)C(C)(C)[C@@H]1CC3
2. CC1=C(C/C=C(\C)CCC[C@H](C)CCC[C@H](C)CCCC(C)C)C(=O)c2ccccc2C1=O
3. COc1cc(O)c2c(c1)OC(c1ccc(OC)c(O)c1)CC2=O (centres unmarked)
4. C[C@H](CCC(=O)O)[C@H]1CC[C@H]2[C@@H]3[C@H](O)C[C@H]4C[C@H](O)CC[C@]4(C)[C@H]3C[C@H](O)[C@]12C

RESULT:
1060.924
1038.691
1028.526
1000.774

Dear colleague, could you please provide Lipase (RFU) for the compounds listed below?
1. COc1ccc(-c2cc(=O)c3c(O)c(OC)c(OC)c(OC)c3o2)cc1OC
2. COc1cc(C=CC(=O)O)cc(OC)c1OC
3. N[C@@H](CS(=O)O)C(=O)O [L-Cysteine Sulfinic Acid]
4. CC(CC(=O)C[C@@H](C)[C@H]1CC(=O)[C@@]2(C)C3=C(C(=O)C[C@]12C)[C@@]1(C)CC[C@H](O)C(C)(C)[C@@H]1C[C@@H]3O)C(=O)O (some centres unmarked)

RESULT:
[860.071, 1076.789, 845.2477, 879.1619]

Dear colleague, could you please provide Lipase (RFU) for the compounds listed below?
1. O.O=C(O)c1cc(O)c(O)c(O)c1 [Gallic acid (hydrate)]
2. O=P(O)(O)O[C@H]1O[C@H](CO)[C@@H](O)[C@H](O)[C@@H]1O [D-Mannose-1-Phosphate]
3. O.O.O=c1c(O)c(-c2ccc(O)c(O)c2)oc2cc(O)cc(O)c12 [Quercetin (dihydrate)]

RESULT:
1: 709.0148; 2: 1121.007; 3: 1081.937

====

test system: lipase; test: Lipase/lipolysis assay (EnzChek Lipase Substrate, quenched BODIPY-fatty acid conjugate) on stored human milk; further: test concentration or dose not given here
Counter-ions that a name gives are not always drawn.
Decision: Lipase (RFU) >= 1000 RFU yields fulfilled, all other cases yield not fulfilled.

Examples from the recorded data:
{"Compound": "COc1ccc([C@@H]2CC(=O)c3c(O)cc(O[C@@H]4O[C@H](CO[C@@H]5O[C@@H](C)[C@H](O)[C@@H](O)[C@H]5O)[C@@H](O)[C@H](O)[C@H]4O)cc3O2)cc1", "Label": "fulfilled"}
{"Compound": "Cl.NCC(=O)CCC(=O)O [5-Aminolevulinic acid (hydrochloride)]", "Label": "not fulfilled"}
{"Compound": "Nc1ncnc2c1ncn2[C@@H]1O[C@H](COP(=O)(O)O)[C@@H](O)[C@H]1O.O [Adenosine 5′-monophosphate monohydrate]", "Label": "not fulfilled"}
{"Compound": "Cl.N=C(N)NCCC[C@H](N)C(=O)O [L-Arginine (hydrochloride)]", "Label": "fulfilled"}
{"Compound": "C[C@H](CCC(=O)NCCS(=O)(=O)O)[C@H]1CC[C@H]2[C@@H]3[C@H](O)C[C@@H]4C[C@H](O)CC[C@]4(C)[C@H]3C[C@H](O)[C@]12C [Taurocholic acid (sodium salt hydrate)]", "Label": "fulfilled"}

QUERY: hey, is Lipase (RFU) for this one >= 1000 RFU? O=C(O)[C@H](O)[C@@H](O)[C@H](O)[C@H](O)CO[C@H]1O[C@H](CO)[C@H](O)[C@H](O)[C@H]1O
RESULT: not fulfilled

====

system: lipase; test: Lipase/lipolysis assay (EnzChek Lipase Substrate, quenched BODIPY-fatty acid conjugate) on stored human milk; further: test concentration or dose not given here
Decision: Lipase (RFU) >= 900 RFU yields Fulfilled, all other cases yield Not fulfilled.

Examples from the recorded data:
{"Molecule": "C[C@H]1CC[C@]2(NC1)O[C@H]1C[C@H]3[C@@H]4CC[C@H]5C[C@@H](O)CC[C@]5(C)[C@H]4CC[C@]3(C)[C@H]1[C@@H]2C", "Label": "Fulfilled"}
{"Molecule": "O=C([O-])[C@@H](O)CO.[Na+] [L-Glyceric acid (sodium)]", "Label": "Not fulfilled"}
{"Molecule": "C=C(CO)C(=O)O[C@H]1CC(=C)[C@@H]2C[C@H](O)C(=C)[C@@H]2[C@H]2OC(=O)C(=C)[C@@H]21", "Label": "Fulfilled"}
{"Molecule": "COc1cc(-c2oc3cc(OC)c(OC)c(O)c3c(=O)c2OC)ccc1O", "Label": "Fulfilled"}
{"Molecule": "OC[C@H]1NC[C@H](O)[C@@H](O)[C@@H]1O", "Label": "Fulfilled"}

QUERY: hey, is Lipase (RFU) for this one >= 900 RFU? CC/C=C\C/C=C\C/C=C\C/C=C\C/C=C\CCCCCC(=O)O [Docosapentaenoic acid (22n-3)]
RESULT: Fulfilled

QUERY: hey, is Lipase (RFU) for this one >= 900 RFU? CCOP(=O)(O)OCC [Diethyl phosphate]
RESULT: Fulfilled

QUERY: hey, is Lipase (RFU) for this one >= 900 RFU? CC(=O)CCc1ccc2c(c1)OCO2
RESULT: Not fulfilled

QUERY: hey, is Lipase (RFU) for this one >= 900 RFU? O=C(O)C1CSSC1
RESULT: Fulfilled

QUERY: hey, is Lipase (RFU) for this one >= 900 RFU? NC(N)=NCCC[C@H](NC(=O)[C@@H](N)Cc1ccc(O)cc1)C(=O)O
RESULT: Fulfilled

QUERY: hey, is Lipase (RFU) for this one >= 900 RFU? Cc1cccc(C=O)c1
RESULT: Not fulfilled
